B1: Pistol ribozyme (parent)
chain: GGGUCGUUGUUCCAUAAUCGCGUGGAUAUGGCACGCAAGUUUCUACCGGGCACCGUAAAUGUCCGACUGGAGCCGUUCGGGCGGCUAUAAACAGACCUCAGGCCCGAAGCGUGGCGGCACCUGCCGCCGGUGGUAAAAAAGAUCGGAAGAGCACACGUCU

Variants of: B1
Assay: aptazyme ON/OFF ratio, guanine; higher = stronger switching; co-transcriptional cleavage with and without guanine
Measured aptazyme ON/OFF ratio of individual entries
Form rule: numeric answer, no unit written next to it.

Take a look at these entries with their results.
>  <mutant>
U7C U8A U10A U11G C12G C13A

>  <aptazyme ON/OFF ratio>
1.03

$$$$
>  <mutant>
U8G G9U U10G C13A

>  <aptazyme ON/OFF ratio>
1.04

$$$$
>  <mutant>
U7A U8C U10A C12A C13A

>  <aptazyme ON/OFF ratio>
1.22

$$$$
>  <mutant>
U7G U8A U10A U11C C13U

>  <aptazyme ON/OFF ratio>
1

$$$$
>  <mutant>
U7A U8A G9U U11C

>  <aptazyme ON/OFF ratio>
1.09

$$$$
>  <mutant>
G9A U10G U11C C13A

>  <aptazyme ON/OFF ratio>
1.16

$$$$
>  <mutant>
U7A G9U U10A C12U C13G

>  <aptazyme ON/OFF ratio>
1.13

$$$$
>  <mutant>
U7A U8A G9U U10A U11A C13A

>  <aptazyme ON/OFF ratio>
1.23

$$$$

Query string: Find the recorded aptazyme ON/OFF ratio belonging to U7G G9U C12G C13A and report it.
Result string: 1.16

Query string: Record request: aptazyme ON/OFF ratio value, item U8C G9A U11G C12A C13G
Result string: 1.29

Query string: Record request: aptazyme ON/OFF ratio value, item U8G U10G C12A C13A
Result string: 1.26

Query string: Consider the variant U7C U8C G9U U10C C12A C13A and give its measured aptazyme ON/OFF ratio.
Result string: 1.17

Query string: Would you mind telling me what aptazyme ON/OFF ratio value was observed for U7A U8G G9U U10A U11A C12A C13G ?
Result string: 1.25

Query string: Sample U8G G9U U11A C12G C13U — what was its aptazyme ON/OFF ratio?
Result string: 1.18

Query string: Query (variant): G9C C12A C13G ; field requested: aptazyme ON/OFF ratio
Result string: 1.1

Query string: Which aptazyme ON/OFF ratio is listed for U8G G9A U10C U11C C12A C13A ?
Result string: 1.05

Query string: Give the measured aptazyme ON/OFF ratio of U7A G9A U11C C13G .
Result string: 1.08

Query string: Which aptazyme ON/OFF ratio is listed for U7A U8C G9A U10A U11G C12U C13G ?
Result string: 1.24

Query string: Could you tell me which aptazyme ON/OFF ratio is on file for U7C G9A U10A U11G C12A C13G ?
Result string: 1.11

Query string: If you can, please state the reported aptazyme ON/OFF ratio value of U7A U10C U11G C12U .
Result string: 1.24

Query string: Item U7A G9U U10A U11A C12G C13A has what recorded aptazyme ON/OFF ratio?
Result string: 1.11

Query string: Which value of aptazyme ON/OFF ratio has been reported for U7C U8C U10C U11A C12U C13A in the records?
Result string: 1.33

Query string: Given the variant U7C U8C G9U U10A U11C C12U C13G , what is its reported aptazyme ON/OFF ratio?
Result string: 1.14

Query string: Recorded aptazyme ON/OFF ratio of U7C U8C U11G C12A , please.
Result string: 1.35

Query string: Any idea what aptazyme ON/OFF ratio was measured for U7G U8A G9A U11G C12U C13G ?
Result string: 1.2

Query string: # query: aptazyme ON/OFF ratio of entry U7G U8C G9U U10A U11G C12U C13A
Result string: 1.2

Query string: What aptazyme ON/OFF ratio value was documented for this variant, U7A U8G G9C C12U ?
Result string: 1.88
